The entries below are paired with their reported pEC50.
Biological target: human M4 receptor (Homo sapiens, UniProt P08173)
Sequence (P08173 1-479): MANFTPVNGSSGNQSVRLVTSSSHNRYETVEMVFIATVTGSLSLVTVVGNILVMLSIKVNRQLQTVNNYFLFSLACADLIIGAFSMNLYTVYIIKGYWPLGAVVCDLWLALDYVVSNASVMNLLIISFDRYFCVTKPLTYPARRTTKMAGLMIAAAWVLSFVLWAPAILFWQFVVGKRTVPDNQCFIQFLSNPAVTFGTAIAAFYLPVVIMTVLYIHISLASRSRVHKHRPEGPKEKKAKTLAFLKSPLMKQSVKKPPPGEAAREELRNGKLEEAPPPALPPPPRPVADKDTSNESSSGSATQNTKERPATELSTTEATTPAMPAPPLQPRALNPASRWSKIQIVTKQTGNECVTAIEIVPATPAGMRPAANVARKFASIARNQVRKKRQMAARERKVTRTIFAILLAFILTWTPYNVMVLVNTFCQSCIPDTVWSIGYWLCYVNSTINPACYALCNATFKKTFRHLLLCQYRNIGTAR
Assay: M4 GTPγS PAM assay (CHO-K1 membranes, 35S-GTP binding, with EC20 acetylcholine)
Conditions: with EC20 acetylcholine (40 nM)
pEC50: −log10 of the molar value.

COMPOUND	TESTED_TARGET	EXPERIMENTAL_ENDPOINT	READING
Cc1c2c(n(C)c(=O)c1C)CN(C(=O)CC1CN(c3ccc(C4CC4)c(F)c3)C1C)C2 (single isomer, unassigned) [Compound I-61]	human M4 receptor (Homo sapiens, UniProt P08173)	pEC50	> 7.30
Cc1cc(=O)n(C)c2c1CN(C(=O)CC1CN(c3ccc(F)cc3)C1)C2	human M4 receptor (Homo sapiens, UniProt P08173)	pEC50	6.00 to 6.70
Cc1cc(=O)n(CC2CC2)c2c1CN(C(=O)CC1CN(c3ccc(C(F)(F)F)cc3)C1)C2	human M4 receptor (Homo sapiens, UniProt P08173)	pEC50	6.70 to 7.30
Cc1c2c(n(C)c(=O)c1C)CN(C(=O)CC1CN(c3nc(C(F)(F)F)c(C4CC4)s3)C1)C2	human M4 receptor (Homo sapiens, UniProt P08173)	pEC50	6.70 to 7.30
Cc1cc(=O)n(C)c2c1CN(C(=O)CC1CN(c3cccc(C(F)(F)F)c3)C1)C2	human M4 receptor (Homo sapiens, UniProt P08173)	pEC50	6.70 to 7.30
Cc1cc(=O)n(C)c2c1CN(C(=O)CC1CN(c3cccnc3)C1)C2	human M4 receptor (Homo sapiens, UniProt P08173)	pEC50	> 7.30

Please look at the following compound next.
Query :: Identify pEC50 associated with the compound `Cc1cc(=O)n(C)c2c1CN(C(=O)CC1CN(c3nc(C(F)(F)F)cs3)C1)C2`
Result :: 6.00 to 6.70

* * *

target: rM4 receptors (Rattus norvegicus); assay: Rat M4 PAM PERK assay (CHO cells, TR-FRET, with EC20 acetylcholine)
Sequence (P08485 whole entry): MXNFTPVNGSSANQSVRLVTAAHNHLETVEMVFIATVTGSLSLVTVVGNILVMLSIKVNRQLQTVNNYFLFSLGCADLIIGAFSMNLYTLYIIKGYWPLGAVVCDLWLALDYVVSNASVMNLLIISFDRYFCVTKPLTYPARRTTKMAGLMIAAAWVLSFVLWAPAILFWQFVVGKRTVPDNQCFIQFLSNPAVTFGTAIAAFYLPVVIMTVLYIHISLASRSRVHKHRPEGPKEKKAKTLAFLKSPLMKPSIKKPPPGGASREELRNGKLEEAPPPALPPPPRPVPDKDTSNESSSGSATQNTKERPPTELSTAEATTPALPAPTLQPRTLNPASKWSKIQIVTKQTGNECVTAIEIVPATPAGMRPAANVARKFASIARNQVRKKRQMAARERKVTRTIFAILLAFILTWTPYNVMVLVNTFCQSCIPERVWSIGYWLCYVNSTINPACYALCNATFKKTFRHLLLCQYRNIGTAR
pEC50: −log10 of the molar value.
EXPERIMENTAL_ENDPOINT: pEC50

Please review the entries below; each comes with its answer.
COMPOUND	TESTED_TARGET	pEC50
CCc1c(C)c2c(n(C)c1=O)CN(C(=O)CC1CN(c3ccnc(C(F)(F)F)c3)C1)C2 [Compound I-107]	rM4 receptors (Rattus norvegicus)	< 6.00
Cc1cc(=O)n(C)c2c1CN(C(=O)CC1CN(c3cccc(C#N)c3)C1)C2 [Compound I-25]	rM4 receptors (Rattus norvegicus)	6.00 to 6.70
Cc1c2c(n(C)c(=O)c1Cl)CN(C(=O)CC1CN(c3ccncn3)C1)C2 [Compound I-70]	rM4 receptors (Rattus norvegicus)	6.00 to 6.70
Cc1c2c(n(C)c(=O)c1Cl)CN(C(=O)CC1CN(c3ccc(F)cc3)C1)C2 [Compound I-79]	rM4 receptors (Rattus norvegicus)	6.70 to 7.30
Cc1c2c(n(C)c(=O)c1C)CN(C(=O)CC1CN(c3ccc(C(C)(C)O)c(F)c3)C1)C2 [Compound I-59]	rM4 receptors (Rattus norvegicus)	6.70 to 7.30
Cc1c2c(n(C)c(=O)c1Cl)CN(C(=O)CC1CN(c3cccnc3)C1)C2 [Compound I-67]	rM4 receptors (Rattus norvegicus)	6.70 to 7.30

Query :: Identify pEC50 associated with the compound COc1cc(N2CC(CC(=O)N3Cc4c(C)c(C)c(=O)n(C)c4C3)C2)cc(C(F)(F)F)n1 [Compound I-54]
Result :: 6.00 to 6.70

Query :: Identify pEC50 associated with the compound Cc1cc(=O)n(C)c2c1CN(C(=O)CC1CN(c3ccc(F)c(C(F)(F)F)c3)C1)C2 [Compound I-20]
Result :: 6.70 to 7.30

Query :: Identify pEC50 associated with the compound Cc1cc(=O)n(C)c2c1CN(C(=O)CC1CN(c3cnn(C4CC4)c3)C1)C2 [Compound I-37]
Result :: < 6.00

Query :: Identify pEC50 associated with the compound Cc1cc(=O)n(CC(F)(F)F)c2c1CN(C(=O)CC1CN(c3ccc(C(F)(F)F)cc3)C1)C2 [Compound I-105]
Result :: 6.00 to 6.70

Query :: Identify pEC50 associated with the compound Cc1c2c(n(C)c(=O)c1C)CN(C(=O)CC1CN(c3ccnc(C(F)(F)F)c3)C1)C2 [Compound I-42]
Result :: 6.70 to 7.30

Query :: Identify pEC50 associated with the compound Cc1cc(=O)n(C)c2c1C(C)N(C(=O)CC1CN(c3ccnc(C(F)(F)F)c3)C1)C2 (racemic) [Compound I-113]
Result :: < 6.00
